assay_procedure: caspase 3/7 activation in MEF A1-2A-BIM cells, primary screen, A1 inhibitor project, cell-based, luminescence, HTS (AID 2462)
experimental_context: Caspase-Glo 3/7 luminescence, 3 h, stronger effect = higher value, percent of clofoctol response, vehicle zero, concentration not given here
In all, about 330,000 compounds went through this assay and about 220 (0.067%) were called active. The sample as a whole holds a higher share of actives than the screen did.
assay_readout: caspase activation (%)

compound	assay_readout	observed_value
CC[N+](C)(CC)CCC[n+]1c(-c2ccccc2)c2cc(N)ccc2c2ccc(N)cc21	caspase activation	2.85
COc1ccccc1CNC(=O)CCCNS(=O)(=O)c1cccc2nsnc12	caspase activation	0.433
C#CCOCCOCCOCCNc1nc(N2CCN(C(=O)[C@H](CCCN=C(N)N)n3cc(C(N)[C@@H](C)CC)nn3)CC2)nc(N2CCN(C(=O)[C@H](CO)n3cc([C@@H](N)C(C)C)nn3)CC2)n1 (stereo partly drawn)	caspase activation	0.85
COC(=O)Nc1ncc(CN2CCCCC2)s1	caspase activation	0.0297
Cc1ccc(NC(=O)/C(=C/c2ccc([N+](=O)[O-])cc2)NC(=O)c2ccccc2)cc1	caspase activation	-0.427
CCOc1ccccc1-n1c(SCC(=O)NCc2ccco2)nnc1-c1ccncc1	caspase activation	-0.681
Cc1cc(=O)[nH]c(S)c1C#N	caspase activation	0.51
O=C(NCc1ccccc1)C1=C[C@@H](C2CCCCC2)C[C@@H](OCc2ccc(CO)cc2)O1	caspase activation	1.39
O=C(N/N=C/c1cccc(OCc2ccccc2)c1)c1ccc(Br)o1	caspase activation	0.285
O=C1Nc2c(Br)cc(Br)cc2C1(O)N1CCOCC1 (stereo not drawn)	caspase activation	-1.16
CSc1cc(C)[nH]c(=O)n1	caspase activation	-0.248
CCOc1ccc(NC(=O)CC2C(=O)N(c3ccccc3)C(=O)N2CCOC)cc1 (stereo not drawn)	caspase activation	0.358
FC(F)(F)c1ccnc(Oc2ccc(C3=NCCS3)cc2)c1	caspase activation	-5.34
CCCc1ccc(OCc2ccc(C(=O)N/N=C/c3cccc([N+](=O)[O-])c3)o2)c(OC)c1	caspase activation	16.1
Cc1cccc(N2CC(C(=O)Nc3ccccc3N3CCCC3)CC2=O)c1C (stereo not drawn)	caspase activation	-0.198
CCCCC(O)(CCCC)C(=O)NN(C(=O)CCl)c1ccccc1	caspase activation	0.273
COc1ccc(C2CC(=O)C=C(NCC3CCCO3)C2)cc1 (stereo not drawn)	caspase activation	1.09
CCOc1ccccc1NC(=O)NC1CCCCCCC1	caspase activation	-0.841
Nc1nc(Br)c2ccccc2c1-c1ccc(F)cc1	caspase activation	-0.0976
O=C(NCCN1CCN(C(=O)c2cccc([N+](=O)[O-])c2)CC1)C(=O)NCc1ccc(Cl)cc1	caspase activation	-0.117
O=C(O)c1cccnc1Sc1ncnc2sc3c(c12)CCC3	caspase activation	-0.234
CNc1[nH]ncc1[N+](=O)[O-]	caspase activation	-0.643
COCCNc1ccc(-c2n[nH]c(=O)c3ccccc23)cc1[N+](=O)[O-]	caspase activation	-1.33

====

assay_procedure: caspase 3/7 activation in MEF A1-2A-BIM cells, primary screen, A1 inhibitor project, cell-based, luminescence, HTS (AID 2462)
experimental_context: Caspase-Glo 3/7 luminescence, 3 h, percent of clofoctol response, vehicle zero, concentration not given here
The campaign covered roughly 330,000 compounds. About 220 (0.067%) were called active.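 How the source made its calls: active means over half of replicate activation scores above 10%, or exactly half above 10 with the replicate mean above 10; inconclusive means replicate mean below 10 yet half the replicates above 10; inactive means over half of replicates below 10.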 Only a selection was taken, and actives are over-represented in it overall.
Possible outcomes: active, inactive

compound	class_name
O=[N+]([O-])C(=c1ccc2c(c1)N1C3=C(CCCC3)CC3CCCCC31N=2)[N+](=O)[O-] (configuration not stated)	active
Cc1ccc(CC2C(=O)N(c3ccc(F)cc3)C(=O)C2C)cc1 (configuration not stated)	inactive
O=C(NC1CCCCC1)C1CCC(CNS(=O)(=O)c2ccccc2)CC1 (configuration not stated)	inactive
CCC1=NN(C(=O)Cc2ccc([N+](=O)[O-])cc2)C(O)(c2ccc(Br)cc2)C1 (configuration not stated)	inactive
Cc1cc(NC(=O)CSc2nc3cc(Cl)ccc3c(=O)n2Cc2ccco2)no1	active
CN(C)C(=O)Cn1c(=O)n(S(=O)(=O)c2ccccc2)c2ccccc21	inactive
CCC(C)NC(=O)N[C@@H](CCSC)C(=O)O (some centres not stated)	inactive
Cc1cc(C)n(S(=O)(=O)c2cccc([N+](=O)[O-])c2)n1	inactive
O=C1CC(Cc2ccccc2)C(=O)N1c1ccc(Cl)cn1 (configuration not stated)	inactive
O=C(NCCc1ccco1)C(=O)NCCC1CCCCN1S(=O)(=O)c1ccccc1 (configuration not stated)	inactive
CN(c1ccc2nc3ccccc3c(=O)n2n1)C1CCCCC1	inactive
Cc1ccc(N/N=C2\COC(C)(C)CC2=O)cc1	inactive

Data credit: PubChem BioAssay AID2462
